- EXPERIMENT_SUMMARY: PPB, rat
- Format: in vitro ADME
- STUDY_CONDITIONS: plasma
PARAMETER: fraction unbound
Answer with a bare number; do not write a unit.

COc1cc(-c2cn(C)c(=O)c(C)c2C)cc(OC)c1CN1CCC(N2CCN(c3ccc(NC4CCC(=O)NC4=O)cc3F)CC2)C(F)(F)C1 (single isomer, unassigned) [Compound 176]	0.098

Switching to the query record.
**Query** Which fraction unbound is reported for this compound? COc1cc(-c2cn(C)c(=O)c(C)c2C)cc(OC)c1CN1CCC(N2CCN(c3ccc(NC4CCC(=O)NC4=O)cc3F)CC2)C(F)(F)C1 (centres unmarked) [Compound 172]
**Result** 0.083

----------
- EXPERIMENTAL_TARGET: UniProtKB P05181
- Sequence (P05181 whole entry): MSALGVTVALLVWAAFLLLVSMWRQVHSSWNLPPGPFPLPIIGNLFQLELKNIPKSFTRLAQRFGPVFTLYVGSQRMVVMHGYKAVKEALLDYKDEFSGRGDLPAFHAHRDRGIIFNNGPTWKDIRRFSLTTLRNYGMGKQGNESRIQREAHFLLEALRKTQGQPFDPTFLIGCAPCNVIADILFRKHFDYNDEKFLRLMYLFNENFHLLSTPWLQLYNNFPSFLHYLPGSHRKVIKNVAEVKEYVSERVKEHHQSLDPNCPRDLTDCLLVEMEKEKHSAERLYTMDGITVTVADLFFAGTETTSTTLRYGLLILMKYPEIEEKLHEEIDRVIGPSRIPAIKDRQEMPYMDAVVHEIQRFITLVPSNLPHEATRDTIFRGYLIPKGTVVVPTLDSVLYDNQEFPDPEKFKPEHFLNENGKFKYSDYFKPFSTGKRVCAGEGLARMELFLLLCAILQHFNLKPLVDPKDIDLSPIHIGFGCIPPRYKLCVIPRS
- EXPERIMENT_SUMMARY: CYP inhibition 2E1
- Assay type: in vitro ADME
PARAMETER: IC50 (µM)
The figure you give is taken to be in µM; do not add the unit.

**Query** Field request: IC50 | item: COc1cc(-c2cn(C)c(=O)c(C)c2C)cc(OC)c1CN1CCC(N2CCN(c3ccc(NC4CCC(=O)NC4=O)cc3F)CC2)C(F)(F)C1 (stereo not shown) [Compound 172]
**Result** 30

----------
In this section, each of the compounds is paired with its reported DC50.
- EXPERIMENTAL_TARGET: BRD9 (Homo sapiens, UniProt Q9H8M2)
- EXPERIMENT_SUMMARY: HiBiT BRD9 degradation assay in 293T.166 (BRD9-HiBiT) cells
- Type: cell-based
- Design: endogenously expressing BRD9 with HiBiT fusion tag via CRISPR; host or cells: 293T.166 (BRD9-HiBiT), also expressing LgBiT ectopically
- STUDY_CONDITIONS: Table 1; 293T.166 cells, 2.0 hours; class symbols; read-out: HiBiT-Degradation 293T.166 BRD9 2.0 hours (DC50)

Below, each entry is followed by its recorded DC50 result.
COc1cc(-c2cn(C)c(=O)c(C)c2C)cc(F)c1CN1CCC(N2CCN(c3ccc(NC4CCC(=O)NC4=O)cc3F)CC2)C(F)(F)C1 (centres unmarked)	< 100 nM
COc1cc(-c2cn(C)c(=O)c3ccccc23)cc(Cl)c1CN1CCC(N2CCC(c3ccc(NC4CCC(=O)NC4=O)cc3F)CC2)C(F)(F)C1 (centres unmarked)	< 100 nM
COc1cc(-c2cn(C)c(=O)c3[nH]ncc23)cc(OC)c1CN1CCN(C(=O)CC2CCN(c3ccc(NC4CCC(=O)NC4=O)cc3C(F)(F)F)CC2)CC12CC2 (centres unmarked)	< 100 nM
COc1cc(-c2cn(C)c(=O)c3[nH]ncc23)c(Cl)cc1CN1CCN(C(=O)CN2CCC(c3ccc(NC4CCC(=O)NC4=O)cc3)CC2)CC1 (centres unmarked)	< 100 nM

**Query** Query (compound): COc1cc(-c2cn(C)c(=O)c3[nH]ncc23)cc(Cl)c1CN1CCC(C2CCN(c3ccc(NC4CCC(=O)NC4=O)cc3)CC2)CC1 (centres unmarked) ; field requested: DC50
**Result** < 100 nM

**Query** Would you kindly repeat that for COc1cc(-c2cn(C)c(=O)c(C)c2C)cc(OC)c1CN1CCN(C(=O)CC2CCN(c3ccc(NC4CCC(=O)NC4=O)cc3C(F)(F)F)CC2)CC1 (centres unmarked) ?
**Result** < 100 nM

**Query** Lookup COc1cc(-c2cn(C)c(=O)c3[nH]ncc23)cc(Cl)c1C(=O)N1CCC(CC(=O)N2CCC(c3ccc(NC4CCC(=O)NC4=O)cc3)CC2)CC1 (centres unmarked)
**Result** < 100 nM

**Query** Then COc1cc(-c2cn(C)c(=O)c3[nH]ncc23)cc(OC)c1CC1CCN(C(=O)CC2CCN(c3ccc(NC4CCC(=O)NC4=O)cc3)CC2)CC1 (centres unmarked) ?
**Result** < 100 nM

**Query** Moving on to COc1cc(-c2cn(C)c(=O)c3cnccc23)cc(OC)c1CN1CCc2cc(C3CCN(c4ccc(NC5CCC(=O)NC5=O)cc4C(F)(F)F)CC3)ccc2C1 (centres unmarked)
**Result** < 100 nM

**Query** Same question, COc1cc(-c2cn(C)c(=O)c(C)c2C)cc(Cl)c1CN1CCC(C2CCN(c3ccc(NC4CCC(=O)NC4=O)cc3Cl)CC2)CC1 (centres unmarked) this time
**Result** < 100 nM

----------
- EXPERIMENTAL_TARGET: CYP 2C19 (Homo sapiens, UniProt P33261)
- Sequence (P33261 whole entry): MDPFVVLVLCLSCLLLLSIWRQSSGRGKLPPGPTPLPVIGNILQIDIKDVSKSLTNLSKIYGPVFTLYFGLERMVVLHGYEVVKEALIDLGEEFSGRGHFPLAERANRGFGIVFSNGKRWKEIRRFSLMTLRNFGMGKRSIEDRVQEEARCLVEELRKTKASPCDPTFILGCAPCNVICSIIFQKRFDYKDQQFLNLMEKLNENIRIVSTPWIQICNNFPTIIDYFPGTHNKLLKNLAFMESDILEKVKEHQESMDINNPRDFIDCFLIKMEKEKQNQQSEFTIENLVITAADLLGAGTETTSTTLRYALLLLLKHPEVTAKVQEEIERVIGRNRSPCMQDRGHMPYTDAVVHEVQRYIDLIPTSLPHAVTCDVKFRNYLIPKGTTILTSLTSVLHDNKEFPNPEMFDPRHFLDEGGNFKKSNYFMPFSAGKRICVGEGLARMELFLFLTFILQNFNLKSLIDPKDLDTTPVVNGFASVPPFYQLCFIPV
- EXPERIMENT_SUMMARY: CYP TDI (time-dependent inhibition)
- Assay type: in vitro ADME
- STUDY_CONDITIONS: 2C19, first of two values in brackets; read-out: CYP TDI 2C19, first value
pIC50: −log10 of the molar value.
PARAMETER: pIC50

**Query** Sample COc1cc(-c2cn(C)c(=O)c(C)c2C)cc(OC)c1CN1CCC(N2CCN(c3ccc(NC4CCC(=O)NC4=O)cc3F)CC2)C(F)(F)C1 (stereo not shown) [Compound 172] — what was its pIC50?
**Result** < 4.30

----------
- EXPERIMENTAL_TARGET: UniProtKB Q96SW2
- Sequence (Q96SW2 whole entry): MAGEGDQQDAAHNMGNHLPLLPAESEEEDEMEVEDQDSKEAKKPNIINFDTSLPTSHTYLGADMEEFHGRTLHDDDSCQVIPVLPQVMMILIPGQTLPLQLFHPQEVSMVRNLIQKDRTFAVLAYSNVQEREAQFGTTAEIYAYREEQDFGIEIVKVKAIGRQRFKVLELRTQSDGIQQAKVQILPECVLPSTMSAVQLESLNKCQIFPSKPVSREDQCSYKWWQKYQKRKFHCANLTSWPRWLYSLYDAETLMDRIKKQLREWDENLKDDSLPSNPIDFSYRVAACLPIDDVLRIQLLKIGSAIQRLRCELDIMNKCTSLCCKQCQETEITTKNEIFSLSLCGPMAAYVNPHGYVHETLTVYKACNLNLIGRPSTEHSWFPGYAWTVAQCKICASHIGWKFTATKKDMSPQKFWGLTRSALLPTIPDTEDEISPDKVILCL
PARAMETER: pKd
Reminder that pKd means the negative base-10 logarithm of the concentration expressed in mol/L.

**Query** Look up pKd: COc1cc(-c2cn(C)c(=O)c(C)c2C)cc(OC)c1CN1CCC(N2CCN(c3ccc(NC4CCC(=O)NC4=O)cc3F)CC2)C(F)(F)C1 (stereo not shown) [Compound 172]
**Result** 6.02

----------
- EXPERIMENTAL_TARGET: BRD9 (Homo sapiens, UniProt Q9H8M2)
- EXPERIMENT_SUMMARY: HiBiT BRD9 degradation assay in 293T.166 (BRD9-HiBiT) cells
- Type: cell-based
- Design: endogenously expressing BRD9 with HiBiT fusion tag via CRISPR; host or cells: 293T.166 (BRD9-HiBiT), also expressing LgBiT ectopically
- STUDY_CONDITIONS: Table 1; 293T.166 cells, 2.0 hours; class symbols; read-out: HiBiT-Degradation 293T.166 BRD9 2.0 hours (DC50)
PARAMETER: DC50

Consider the reported DC50 for these compounds:
COc1cc(-c2cn(C)c(=O)c(C)c2C)cc(Cl)c1CN1CCC(C2CCN(c3ccc(NC4CCC(=O)NC4=O)cc3F)CC2)C(F)(F)C1 (stereo not drawn)	< 100 nM
Cc1c(-c2ccc(CN3CCC(C4CCN(c5ccc(NC6CCC(=O)NC6=O)nc5)CC4)CC3)c(OC(F)(F)F)c2)cn(C)c(=O)c1C (stereo not drawn)	< 100 nM

Moving on to the next compound.
**Query** Sample COc1cc(-c2cn(C)c(=O)c3[nH]ncc23)cc(Cl)c1CN1CCc2c(cccc2NC2CCN(c3ccc(NC4CCC(=O)NC4=O)cc3)CC2)C1 (stereo not drawn) — what was its DC50?
**Result** < 100 nM

----------
- EXPERIMENTAL_TARGET: BRD9 (Homo sapiens, UniProt Q9H8M2)
- Sequence (Q9H8M2 1-597): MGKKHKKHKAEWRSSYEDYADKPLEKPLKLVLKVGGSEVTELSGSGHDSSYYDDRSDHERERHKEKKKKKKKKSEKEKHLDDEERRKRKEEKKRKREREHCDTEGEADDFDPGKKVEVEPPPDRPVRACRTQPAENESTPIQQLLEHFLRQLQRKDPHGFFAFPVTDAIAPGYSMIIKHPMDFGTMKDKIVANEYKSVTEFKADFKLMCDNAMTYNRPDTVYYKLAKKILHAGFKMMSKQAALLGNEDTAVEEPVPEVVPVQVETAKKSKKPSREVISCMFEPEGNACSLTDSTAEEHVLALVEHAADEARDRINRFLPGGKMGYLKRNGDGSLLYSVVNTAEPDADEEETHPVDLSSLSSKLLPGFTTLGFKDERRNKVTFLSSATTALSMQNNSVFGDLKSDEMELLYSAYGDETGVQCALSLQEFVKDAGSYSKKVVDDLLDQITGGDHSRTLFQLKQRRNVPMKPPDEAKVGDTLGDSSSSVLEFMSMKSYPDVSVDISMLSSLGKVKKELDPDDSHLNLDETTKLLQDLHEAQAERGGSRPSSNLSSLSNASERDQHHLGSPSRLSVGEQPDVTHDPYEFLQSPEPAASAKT
- EXPERIMENT_SUMMARY: HiBiT BRD9 degradation assay in 293T.166 (BRD9-HiBiT) cells
- Type: cell-based
- Design: endogenously expressing BRD9 with HiBiT fusion tag via CRISPR; host or cells: 293T.166 (BRD9-HiBiT), also expressing LgBiT ectopically
- STUDY_CONDITIONS: Table 1; 293T.166 cells, 2.0 hours; class symbols; read-out: HiBiT-Degradation 293T.166 BRD9 2.0 hours (DC50)
// reported DC50 for each item listed

Take a look at these entries with their results.
Cc1c(-c2ccc(C(=O)N3CCC(N(C)C(=O)N4CCC(c5ccc(NC6CCC(=O)NC6=O)cc5)CC4)CC3)c(OC(F)(F)F)c2)cn(C)c(=O)c1C (stereo not drawn) [Compound 129]	< 100 nM
COc1cc(-c2cn(C)c(=O)c3cnccc23)cc(Cl)c1CN1CCC(CCC2CCN(c3ccc(NC4CCC(=O)NC4=O)cc3F)CC2)CC1 (stereo not drawn) [Compound 150]	< 100 nM

Let us examine a further case.
**Query** # get_value(readout='DC50', item= COc1cc(-c2cn(C)c(=O)c3cnccc23)cc(OC)c1CN1CCN(C(=O)CC2CCN(c3ccc(NC4CCC(=O)NC4=O)cc3C(F)(F)F)CC2)CC1 (stereo not drawn) [Compound 54] )
**Result** < 100 nM
